Data credit: patent US10189839B2

Reported pIC50 by item:
Target: full length human TPH1 (Homo sapiens)
Construct: To generate the enzyme, full length human TPH1 is cloned into the plasmid pET20b(+); made in house; host or cells: E. coli
Sequence (P17752 1-444): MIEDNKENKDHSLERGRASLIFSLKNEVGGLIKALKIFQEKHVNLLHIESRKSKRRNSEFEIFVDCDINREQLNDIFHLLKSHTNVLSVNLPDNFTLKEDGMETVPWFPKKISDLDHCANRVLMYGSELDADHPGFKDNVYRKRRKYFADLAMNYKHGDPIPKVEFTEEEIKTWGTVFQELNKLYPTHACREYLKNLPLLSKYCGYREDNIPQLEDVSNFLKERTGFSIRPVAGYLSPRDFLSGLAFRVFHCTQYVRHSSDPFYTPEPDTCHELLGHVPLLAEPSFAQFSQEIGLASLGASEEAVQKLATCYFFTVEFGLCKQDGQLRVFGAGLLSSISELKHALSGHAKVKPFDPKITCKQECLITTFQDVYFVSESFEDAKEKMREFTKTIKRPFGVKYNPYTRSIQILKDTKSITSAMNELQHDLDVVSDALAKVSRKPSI
Test: Biochemical in vitro assay using fluorescence readout (TPH1 enzyme activity)
Settings: Table 1, mean where determined several times
Procedure: Inhibitory activities on tryptophan hydroxylase 1 have been measured for each example compound using the following procedure: Biochemical In Vitro Assay Using Fluorescence Readout To generate the enzyme, full length human TPH1 is cloned into the plasmid pET20b(+) (Novagen) and expressed in E. coli. […] The activity of TPH1 is determined by using a fluorescence assay. […] The amount of 5-hydroxy-L-tryptophan produced during the enzymatic reaction is determined by fluorescence readout. […]
Please express pIC50 as -log10 of the molar concentration.

Use these answered entries as a reference point.
>  <compound>
Cc1nc(C)c(C2c3c(nc4n3CCCC4)CCN2C(=O)COc2ccc(N(C)S(C)(=O)=O)nc2Cl)s1 (centres unmarked) [Example 1.10.12]

>  <reported.metric>
pIC50

>  <reported.measurement>
7.70

$$$$
>  <compound>
COc1ccc(C2c3c(nc4n3CCCC4)CCN2C(=O)COc2ccc(C(=O)NC3CC3)nc2Cl)c(F)c1 (centres unmarked) [Example 1.21.1]

>  <reported.metric>
pIC50

>  <reported.measurement>
7.74

$$$$
>  <compound>
O=C(COc1ccc(N2CCOCC2)nc1Cl)N1CCc2nc3n(c2C1c1ccc(Cl)cc1F)CCCC3 (centres unmarked) [Example 1.1.2]

>  <reported.metric>
pIC50

>  <reported.measurement>
8.15

$$$$
>  <compound>
CC(=O)N1CCn2c(nc3c2C(c2ccc(C)cc2F)N(C(=O)COc2ccc(CN4CCOCC4)cc2Cl)CC3)C1 (centres unmarked) [Example 5.12.3]

>  <reported.metric>
pIC50

>  <reported.measurement>
7.82

$$$$

Task: pIC50 lookup needed for CCc1nc(C)c(C2c3c(nc4n3CCCC4)CCN2C(=O)COc2ccc(NS(C)(=O)=O)nc2Cl)s1 (centres unmarked) [Example 1.11.1] , thanks.
Result: 7.31

Task: pIC50 lookup needed for CN(C)C(=O)c1ccc(OCC(=O)N2CCc3nc4n(c3C2c2ccc(C3CC3)cc2F)CCOC4)c(Cl)n1 (centres unmarked) [Example 6.2.3] , thanks.
Result: 8.52

Task: pIC50 lookup needed for CS(=O)(=O)Nc1ccc(OCC(=O)N2CCc3nc4n(c3C2c2ccc(Cl)cc2F)CCS4)c(Cl)n1 (centres unmarked) [Example 4.1.1] , thanks.
Result: 7.72

Task: pIC50 lookup needed for CS(=O)(=O)Nc1ccc(OCC(=O)N2CCc3nc4n(c3C2c2ccc(C3CC3)cc2F)CCS4)c(Cl)n1 (centres unmarked) [Example 4.3.2] , thanks.
Result: 8.00

Task: pIC50 lookup needed for Cc1nc(C)c(C2c3c(nc4n3CCCC4)CCN2C(=O)COc2ccc(N3CCN(C)CC3)nc2Cl)s1 (centres unmarked) [Example 1.10.9] , thanks.
Result: 7.77
